system: MDA-MB-435; assay: NCI tumour cell line growth inhibition, 48 h
Active and inactive are the calls of the source. No stated cut-off is given here; in the data, active = GI50 up to about 1.1 µM and inactive = higher.
Form field: GI50 (one value per entry).

{"Compound": "Cc1nc2c3c(ncn2n1)Oc1c(c(-c2ccccc2)nn1-c1ccccc1)C3c1ccc(Cl)cc1 (stereo unspecified)", "Tested Target": "MDA-MB-435", "Readout": "GI50", "Result": "> 100 µM (inactive)"}

Which GI50 is reported for this compound? O=[N+]([O-])c1ccc2[nH]c(=S)[nH]c(=S)c2c1
> 100 µM (inactive)

Then O=C(O)c1cc(/C=C/c2cc(O)ccc2O)ccc1O ?
> 10 µM (inactive)

Then CN(C)C(=C1c2cc([N+](=O)[O-])ccc2-c2ccc([N+](=O)[O-])cc21)N(C)C ?
> 100 µM (inactive)

Value source: ChEMBL document CHEMBL1201862
